IC50 values for the compounds below.
test.system: CYP3A4 (Homo sapiens, UniProt P08684)
Sequence (P08684 whole entry): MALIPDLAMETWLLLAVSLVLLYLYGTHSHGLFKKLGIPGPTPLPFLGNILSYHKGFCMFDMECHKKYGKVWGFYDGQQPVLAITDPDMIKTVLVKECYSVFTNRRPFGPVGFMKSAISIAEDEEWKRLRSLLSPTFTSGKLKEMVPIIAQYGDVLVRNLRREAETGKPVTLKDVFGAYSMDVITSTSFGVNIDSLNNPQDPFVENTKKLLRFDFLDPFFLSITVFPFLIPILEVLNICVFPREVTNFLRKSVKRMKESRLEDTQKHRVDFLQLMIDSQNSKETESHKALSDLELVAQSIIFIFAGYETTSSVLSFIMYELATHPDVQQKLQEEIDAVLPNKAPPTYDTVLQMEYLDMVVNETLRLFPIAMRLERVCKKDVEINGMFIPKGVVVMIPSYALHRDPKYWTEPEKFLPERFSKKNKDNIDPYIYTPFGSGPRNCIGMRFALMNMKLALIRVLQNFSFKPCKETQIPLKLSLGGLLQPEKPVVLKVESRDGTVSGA
test.method.notes: Determination of CYP3A4 inhibitory activity (human liver microsome, Luciferin-IPA)
experimental.setup: CYP3A4 IC50 (nM), 37° C. 11 minutes

>>> df
                                   compound                            test_system      meas_value
0  COc1cc(NC(=O)c2cc(=O)c3cc(C)ccc3o2)c(C(=O)Nc2ccc(CCN(Cc3cccnc3)Cc3ccc4c(c3)c(C)nn4C)cc2)cc1OC [Compound 66]  CYP3A4 (Homo sapiens, UniProt P08684)   100 to 250 nM
1  COC(=O)c1ccc(C(=O)Nc2ccc(CCN(Cc3cccc(-n4ccnc4)c3)Cc3cccc(-n4ccnc4)c3)cc2)c(NC(=O)c2cc(=O)c3ccccc3o2)c1 [Compound 260]  CYP3A4 (Homo sapiens, UniProt P08684)        < 100 nM
2  COc1cc(NC(=O)c2cnc3ccccc3c2)c(C(=O)Nc2ccc(CCN(Cc3ccc(-n4ccnc4)cc3)Cc3ccc4c(cnn4C)c3)cc2)cc1OC [Compound 145]  CYP3A4 (Homo sapiens, UniProt P08684)  500 to 1000 nM
3  COc1cc(NC(=O)c2cc(=O)c3ccccc3o2)c(C(=O)Nc2ccc(CCN(Cc3ccc4c(cnn4C)c3)Cc3ccc4c(cnn4C)c3)cc2)cc1OC [Compound 137]  CYP3A4 (Homo sapiens, UniProt P08684)       > 1000 nM

Task item: Suppose we examine the compound COc1cc(NC(=O)c2cc(=O)c3ccccc3o2)c(C(=O)Nc2ccc(CCN(C)C(=O)c3ccc(-n4ccnc4)cc3)cc2)cc1OC [Compound 123] ; what IC50 value has been reported?
Reply: < 100 nM

Task item: Find the recorded IC50 belonging to COc1cc(NC(=O)c2cc(=O)c3ccccc3o2)c(C(=O)Nc2ccc(CCN(Cc3ccc4c(cnn4C)c3)Cc3cnccc3O)cc2)cc1OC [Compound 228] and report it.
Reply: > 1000 nM

Task item: # lookup: IC50 of COc1cncc(CN(CCc2ccc(NC(=O)c3cc(OC)c(OC)cc3NC(=O)c3cc(=O)c4ccc(C)cc4o3)cc2)Cc2ccc3c(cnn3C)c2)c1 [Compound 222]
Reply: 100 to 250 nM

Task item: Quick check: IC50 of COc1cc(NC(=O)c2cc(=O)c3ccccc3o2)c(C(=O)Nc2ccc(CCN(C)Cc3ccc(-c4cncs4)cc3)cc2)cc1OC [Compound 118] ?
Reply: 250 to 500 nM

Task item: Name the recorded IC50 for COc1cncc(CN(CCc2ccc(NC(=O)c3cc(OC)c(OC)cc3NC(=O)c3cc(=O)c4ccccc4o3)cc2)Cc2cnc(-c3ccccc3F)nc2)c1 [Compound 230] .
Reply: 100 to 250 nM

Task item: Reported IC50 for COc1cc(NC(=O)c2cc(=O)c3ccccc3o2)c(C(=O)Nc2ccc(CCN(C)C(=O)CCc3ccncc3)cc2)cc1OC [Compound 120] : what is it?
Reply: 100 to 250 nM

Task item: For the compound COc1cc(NC(=O)c2cc(=O)c3ccccc3o2)c(C(=O)Nc2ccc(CCN(C)C(=O)c3cccc(-c4cccnc4)c3)cc2)cc1OC [Compound 124] , what IC50 is on record?
Reply: 250 to 500 nM

Task item: Quick check: IC50 of COc1cc(NC(=O)c2cc(=O)c3ccccc3o2)c(C(=O)Nc2ccc(CCN(Cc3ccncc3)Cc3ccc4c(cnn4C)c3)cc2)cc1OC [Compound 33] ?
Reply: < 100 nM

----------
test.system: CYP3A4 (Homo sapiens, UniProt P08684)
test.method.notes: Determination of CYP3A4 inhibitory activity (human liver microsome, Luciferin-IPA)
experimental.setup: CYP3A4 IC50 (nM), 37° C. 11 minutes
measured.property: IC50

                                 cpd_smiles     meas_value
0  COc1cc(NC(=O)c2cc(=O)c3ccccc3o2)c(C(=O)Nc2ccc(CCNCc3cccc(-n4ccnc4)c3)cc2)cc1OC  100 to 250 nM
1  CCN(CCc1ccc(NC(=O)c2cc(OC)c(OC)cc2NC(=O)c2cc(=O)c3ccccc3o2)cc1)Cc1ccc(-n2cncn2)cc1  100 to 250 nM
2  COc1cc(NC(=O)c2cc(=O)c3ccccc3o2)c(C(=O)Nc2ccc(CCN(C)Cc3cccc(OC[C@@H]4CO[C@@](Cn5ccnc5)(c5ccc(Cl)cc5Cl)O4)c3)cc2)cc1OC       < 100 nM

Task item: Need IC50 of `COc1cc(NC(=O)c2cc(=O)c3cc(C)ccc3o2)c(C(=O)Nc2ccc(CCN(Cc3cncc(C(C)C)c3)Cc3ccc4c(cnn4C)c3)cc2)cc1OC` , thanks.
Reply: > 1000 nM

Task item: I'd like to know its IC50. The compound in question is `COc1cc(NC(=O)c2cc(=O)c3ccccc3o2)c(C(=O)Nc2ccc(CCN(Cc3cccnc3)Cc3cccc(-n4ccnc4)c3)cc2)cc1OC`
Reply: 100 to 250 nM

Task item: Using the record for `COc1cc(NC(=O)c2cc(=O)c3ccccc3o2)c(C(=O)Nc2ccc(CCN(C)C(=O)c3cccc(-n4ccnc4)c3)cc2)cc1OC` , report its IC50.
Reply: 500 to 1000 nM

Task item: Given the entry `CCN(CCc1ccc(NC(=O)c2cc(OC)c(OC)cc2NC(=O)c2cc(=O)c3ccccc3o2)cc1)Cc1ccc(C)c2ncccc12` , report its measured IC50.
Reply: > 1000 nM

Task item: # lookup: IC50 of `C#Cc1cccc(CN(C)CCc2ccc(NC(=O)c3cc(OC)c(OC)cc3NC(=O)c3cc(=O)c4ccccc4o3)cc2)c1`
Reply: > 1000 nM

Task item: Reported IC50 for `COc1cc(NC(=O)c2cc(=O)c3ccccc3o2)c(C(=O)Nc2ccc(CCN(C)Cc3ccc(-c4nn[nH]n4)cc3)cc2)cc1OC` : what is it?
Reply: > 1000 nM

Task item: Fill blank: measured IC50 of the compound `COc1cncc(CN(CCc2ccc(NC(=O)c3cc(OC)c(OC)cc3NC(=O)c3cnc4ccccc4c3)cc2)Cc2ccc3c(cnn3C)c2)c1` is ____.
Reply: 250 to 500 nM

Task item: Need IC50, item `COc1cc(NC(=O)c2cc(=O)c3cc(C)cc(C)c3o2)c(C(=O)Nc2ccc(CCN(Cc3cccnc3)Cc3ccc4c(cnn4C)c3)cc2)cc1OC`
Reply: 250 to 500 nM

Task item: Endpoint output: IC50 of `COc1cc(NC(=O)c2cnc3ccccc3n2)c(C(=O)Nc2ccc(CCN(Cc3cccc(-n4ccnc4)c3)Cc3ccc4c(cnn4C)c3)cc2)cc1OC` . Value?
Reply: 500 to 1000 nM

----------
test.system: UniProt P08684
test.method.notes: Determination of CYP3A4 inhibitory activity (human liver microsome, Luciferin-IPA)
experimental.setup: CYP3A4 IC50 (nM), 37° C. 11 minutes
Description: The standard final Compound concentrations were 37, 111, 333, 1000, and 3000 nM. 12.5 μL of the Compound dilutions were transferred to a white 96-well plate. […] 25 μL of the buffer was added to each well. The plates were incubated at 37° C. for 11 minutes. 50 μL of luciferin detection reagent (Promega V9002) was added and the plates were incubated at room temperature for 5 minutes. The plate was read with a luminometer. […]
measured.property: IC50

Check out these entries, answers already filled in.
In [3]: df
Out[3]:
                                   molecule  measured_property     meas_value
0  COc1cc(NC(=O)c2cc(=O)c3ccccc3o2)c(C(=O)NCc2ccc(CN(Cc3cccnc3)Cc3ccc4c(cnn4C)c3)cc2)cc1OC [Compound 234]               IC50  100 to 250 nM
1  COc1cc(NC(=O)c2cnc3ccccc3n2)c(C(=O)Nc2ccc(CCN(Cc3cncc(C(C)C)c3)Cc3ccc4c(cnn4C)c3)cc2)cc1OC [Compound 75]               IC50  250 to 500 nM
2  COc1cc(NC(=O)c2cc(=O)c3ccccc3o2)c(C(=O)Nc2ccc(CCN(Cc3ccc4c(c3)c(C)nn4C)Cc3ccc4c(c3)c(C)nn4C)cc2)cc1OC [Compound 180]               IC50      > 1000 nM
3  COc1cc(NC(=O)c2cc(=O)c3ccccc3o2)c(C(=O)Nc2ccc(CCN(Cc3cncc(OCCN)c3)Cc3ccc4c(cnn4C)c3)cc2)cc1OC [Compound 246]               IC50      > 1000 nM
4  COc1cncc(CN(CCc2ccc(NC(=O)c3ccc(C(=O)NS(=O)(=O)N(C)C)cc3NC(=O)c3cc(=O)c4ccccc4o3)cc2)Cc2ccc3c(cnn3C)c2)c1 [Compound 278]               IC50  250 to 500 nM

Next molecule, please.
Task item: Reported IC50 for UniProt P08684, given COc1cc(NC(=O)c2cc(=O)c3ccccc3o2)c(C(=O)Nc2ccc(CCN(Cc3cccnc3)Cc3cnc4cnc(Br)cn34)cc2)cc1OC [Compound 54] ?
Reply: 100 to 250 nM
